Measured values drawn from the supplement of paper PMC6555819 for this set.

Test system: PPARg:RXRa DBDmut IVT, anti-RXR (DBD mutation: RXRa K156A/R161A, NR concentration 270 nM, RXRa partner concentration 90 nM)
Assay: PBM binding z-score (relative to random genomic background probes); higher = stronger binding; sequences stand for … in GC…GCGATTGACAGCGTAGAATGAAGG
# PBM binding z-score per record follows
resultType: PBM binding z-score

>>> measured("CTACCAAGGTGAACAAGGTCGTTAATTACTATTC")
2.2
>>> measured("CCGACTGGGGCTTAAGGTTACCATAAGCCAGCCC")
0.244
>>> measured("GGAACGAGGGCAGTCGAGTTGATAGCATGGCGAT")
2.24
>>> measured("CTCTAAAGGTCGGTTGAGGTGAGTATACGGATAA")
0.506
>>> measured("ATCGAAAAGTCGACGAGGTGAGTATACACCGTTT")
-0.448
>>> measured("TCATATAGGTAAAAGGTGAACGTCGGTGTGGTAA")
5.71
>>> measured("GTACCAAGGTGAATAGGTAGTTGATGAGTAGGCG")
1.51
>>> measured("GCGACTGGGGCATCAGCAGGTTACCATAACTTAA")
3.62
>>> measured("ATATGTAGGTTAAGGGTCAGTCAGGTTGGTTCGC")
7.48
>>> measured("TAGCCTAGGTCAAATCGGGCCAGTATACGCTATA")
1.98
>>> measured("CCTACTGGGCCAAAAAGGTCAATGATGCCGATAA")
3.37
>>> measured("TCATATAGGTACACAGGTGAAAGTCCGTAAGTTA")
3.06
>>> measured("TAGCCTAGTTCATTGGGCCAGTATAGTACGCATC")
1.48
>>> measured("CCTAGTTGGTCAGCAGGTCACACACCGGATATGA")
1.7

====

Tested on: RARa homodimer (NR concentration 270 nM)
Assay: PBM binding z-score (relative to random genomic background probes); higher = stronger binding; sequences stand for … in GC…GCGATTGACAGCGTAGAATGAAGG
Class (by PBM binding z-score) -- label 0 = under -0.2, label 1 = from -0.2 up to 0.6, label 2 = 0.6 and over

>>> labelvalue("CAAACTAGGTCTAGAGGTCAAAGTCCGCTTCCCG")
"label 1"
>>> labelvalue("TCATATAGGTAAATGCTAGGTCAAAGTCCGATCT")
"label 2"
>>> labelvalue("TCTAGTTGGTCAAAGGTCAGACACTCGAAATGCG")
"label 2"
>>> labelvalue("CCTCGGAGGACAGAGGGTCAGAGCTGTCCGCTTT")
"label 0"
>>> labelvalue("CCCACTGGGCCAAAGGTCATTGATTCCAATGCTC")
"label 2"
>>> labelvalue("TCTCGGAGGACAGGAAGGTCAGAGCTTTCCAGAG")
"label 1"
>>> labelvalue("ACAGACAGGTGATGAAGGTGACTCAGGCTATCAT")
"label 1"
>>> labelvalue("CGAACGAGGGCCTGAGTTGATAGCAAATGCCGAT")
"label 0"
>>> labelvalue("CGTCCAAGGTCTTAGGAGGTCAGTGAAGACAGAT")
"label 1"
>>> labelvalue("GCTGCTAGGTCAGGTTGGTCCGCTAACGGGTACG")
"label 0"
>>> labelvalue("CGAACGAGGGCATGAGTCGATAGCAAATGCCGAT")
"label 0"
>>> labelvalue("CAAACTAGGTCAAAGGTCCAAGTCGAGCCAACCA")
"label 1"
>>> labelvalue("CGTACTGGGCCAAAAAGGTCATTGATGCCGATAA")
"label 2"

====

# PBM binding z-score per record follows
Test system: PPARg:RXRa DBDmut IVT, anti-RXR (DBD mutation: RXRa K156A/R161A, NR concentration 270 nM, RXRa partner concentration 90 nM)
Assay: PBM binding z-score (relative to random genomic background probes); higher = stronger binding; sequences stand for … in GC…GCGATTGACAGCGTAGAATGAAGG
resultType: PBM binding z-score

>>> measured("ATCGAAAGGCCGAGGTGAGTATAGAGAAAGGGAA")
-0.777
>>> measured("CCTAGCAGGCCTGGGTCACTCAAGCATTTCGCTT")
0.171
>>> measured("GCTAGTTGTTCAGTAAAAGGTCACACACCGGTCG")
0.391
>>> measured("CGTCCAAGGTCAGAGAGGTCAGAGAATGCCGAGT")
2.84
>>> measured("CGAACTAGGTCAAGTACAGTGAATCTCCGCACGC")
8.4
>>> measured("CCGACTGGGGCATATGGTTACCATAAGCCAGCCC")
1.89
>>> measured("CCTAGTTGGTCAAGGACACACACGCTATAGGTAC")
1.07

====

Tested on: FXR:RXRa (NR concentration 270 nM, RXRa partner concentration 90 nM)
Experiment: PBM binding z-score (relative to random genomic background probes); higher = stronger binding; sequences stand for … in GC…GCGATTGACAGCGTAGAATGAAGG
# PBM binding z-score per record follows
resultType: PBM binding z-score

>>> measured("AGAATGAGGTTATTAAGATCCGGGAATTGCGGTC")
1.33
>>> measured("CCGACTGGAGCAAAGGTTACCATACTCAGTACGA")
0.849
>>> measured("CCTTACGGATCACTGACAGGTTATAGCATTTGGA")
0.345
>>> measured("AGTCAAAGTTCAGGACGAGGTAACGTGAAGCACG")
4.49
>>> measured("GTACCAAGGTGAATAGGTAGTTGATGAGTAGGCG")
0.274
>>> measured("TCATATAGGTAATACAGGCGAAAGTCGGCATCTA")
0.743
>>> measured("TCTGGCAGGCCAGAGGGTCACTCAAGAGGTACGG")
1.24
>>> measured("TCTCGGAGGACACGAAAGGTCATAGCTCGACATC")
4.39
>>> measured("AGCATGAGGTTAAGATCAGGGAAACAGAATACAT")
1.97
>>> measured("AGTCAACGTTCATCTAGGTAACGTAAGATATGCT")
-0.27
>>> measured("ACACACAGGTGATGAAGGTAACTCAGGCTATCAT")
-0.0193
>>> measured("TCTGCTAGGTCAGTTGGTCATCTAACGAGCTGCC")
1.16
>>> measured("ACAGACAGGTGAGTGAAGGTAACTCATCTGGACG")
0.0966
>>> measured("ACTTCCGGGTCAACGAGGTTATAGCACGCGTATA")
6.37
>>> measured("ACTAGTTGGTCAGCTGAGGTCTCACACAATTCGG")
0.132
>>> measured("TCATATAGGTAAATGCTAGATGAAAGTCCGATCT")
0.267
>>> measured("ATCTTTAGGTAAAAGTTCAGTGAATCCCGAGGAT")
0.829

====

System: RXRa homodimer (NR concentration 180 nM)
Assay: PBM binding z-score (relative to random genomic background probes); higher = stronger binding; sequences stand for … in GC…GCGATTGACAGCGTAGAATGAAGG
# PBM binding z-score per record follows
resultType: PBM binding z-score

>>> measured("CGTCAAAGTTCAACTAAGCTAACGTAAAGCACGC")
5.2
>>> measured("AGAATGAGGTTAAGATCAGGCAAACAGAATACAT")
2.49
>>> measured("CCTATTGGTTGACCATAAGGGCAACCGAAGCTCG")
0.512
>>> measured("ATATGTAAGTTATCGGGTCATTCAGTTTGCGCAT")
2.59
>>> measured("CCTACTGGGCAACGAAAGGTCATTGATTCAGTGA")
4.73
>>> measured("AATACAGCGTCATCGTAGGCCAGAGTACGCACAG")
-0.0638
>>> measured("CTCGAAAGGTCGGGCTCAGGTGAGTATACCAAAC")
3
>>> measured("CGTCCAAGGTCAGAGAGGTCAGTGGATGCCGAGT")
5.46
>>> measured("TGAATGAGGTTATAAGATTAGGGAACGTTGCAAA")
1.87
>>> measured("CCTAGCCGGCCAGGGTCACTCAAGCATTTCGCTT")
3.47
>>> measured("ATCGAAAGGTCGACGAGGCGAGTATACACCGTTT")
4.22
>>> measured("TCATATAGGTATACAGGTGAAAGTCCGTAAGTTA")
1.14
>>> measured("CAAACTAGGTCAAGGTCAAAGTTGGTTTGTGCCA")
6.01
>>> measured("ACTATTAGTTGACCTAGGGCAACCGATACGACGC")
2.55
>>> measured("GCTAGCAGTCCATTTGGGTCACTCAATGACGGGC")
0.617
>>> measured("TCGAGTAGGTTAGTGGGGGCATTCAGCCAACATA")
1.34
>>> measured("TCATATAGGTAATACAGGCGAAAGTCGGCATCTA")
0.623
>>> measured("CGAACTAGGTCATTGACAGGACAGTGAATAGTAA")
2.61
>>> measured("GCTCACGGGTCAAAGGTTATAGCATGAATAGAAT")
9.1
>>> measured("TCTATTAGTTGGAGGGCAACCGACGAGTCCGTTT")
0.834
>>> measured("CCTTACGGGTCACTGACAGTTTATAGCATTTGGA")
5.48
>>> measured("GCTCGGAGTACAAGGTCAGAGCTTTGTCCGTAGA")
2.11
>>> measured("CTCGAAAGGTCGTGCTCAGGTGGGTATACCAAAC")
4.59
>>> measured("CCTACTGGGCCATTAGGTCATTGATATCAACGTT")
1.04
